# assay-text: Cytotoxicity against human Raji cells assessed as cell viability at 1000 molar ratio by trypan blue staining method
# measurement-conditions: raji
readout: viability at 1000 molar ratio (%)
Quick reminder: number only, in %, skip the unit.

viability at 1000 molar ratio lookup needed for Clc1nc2ccccc2nc1Cl , thanks. 50
